Cited source for all entries: PubChem BioAssay AID1745844

Test system: rodent lifetime carcinogenesis bioassay, tumor incidence TD50
Assay: carcinogenic potency in animals, long-term in vivo studies, CPDB compilation (AID 1745844)
Conditions: mouse; strain B6C3F1; males; in drinking water; site: liver; lesion: hemangiosarcoma; dosed 65 weeks; study length 70 weeks
Measured metric: TD50

Query: Form field: TD50 recorded for "CCOC(N)=O" with rodent lifetime carcinogenesis bioassay, tumor incidence TD50 (enter value)
Response: 122 mg/kg/day

###

Test system: rodent lifetime carcinogenesis bioassay, tumor incidence TD50
Test: carcinogenic potency in animals, long-term in vivo studies, CPDB compilation (AID 1745844)
Conditions: mouse; strain C57BL/6J; females; in drinking water; site: duodenum; lesion: adenoma; dosed 100 weeks; study length 100 weeks
Measured metric: TD50 (mg/kg/day)
Please give a number only; it is taken to be in mg/kg/day.

Query: If you can, please state the reported TD50 value of "OO" .
Response: 2010

###

System: rodent lifetime carcinogenesis bioassay, tumor incidence TD50
Assay: carcinogenic potency in animals, long-term in vivo studies, CPDB compilation (AID 1745844)
Conditions: rat; strain Fischer 344; females; in drinking water; site: adrenal medulla; lesion: pheochromocytoma, benign; dosed 98 weeks; study length 104 weeks
Measured metric: TD50 (mg/kg/day)
Please give a number only; it is taken to be in mg/kg/day.

Query: Form field: TD50 recorded for "Cc1ccc(S(=O)(=O)Oc2ccc(N=Nc3ccc(-c4ccc(N=Nc5c(O)ccc6cc(S(=O)(=O)O)cc(S(=O)(=O)O)c56)c(C)c4)cc3C)cc2)cc1" with rodent lifetime carcinogenesis bioassay, tumor incidence TD50 (enter value)
Response: 38.3

###

System: rodent lifetime carcinogenesis bioassay, tumor incidence TD50
Test: carcinogenic potency in animals, long-term in vivo studies, CPDB compilation (AID 1745844)
Details: rat; strain Fischer 344; males; in drinking water; site: colon; lesion: several types; types named in the paper; dosed 30 weeks; study length 55 weeks
Measured metric: TD50

Query: If you can, please state the reported TD50 value of "CC[N+]([O-])=NC" .
Response: 0.125 mg/kg/day

###

Test system: rodent lifetime carcinogenesis bioassay, tumor incidence TD50
Assay: carcinogenic potency in animals, long-term in vivo studies, CPDB compilation (AID 1745844)
Settings: hamster; strain Syrian Golden; females; inhaled; site: all sites; lesion: hemangiosarcoma; dosed 26 weeks; study length 104 weeks
Measured metric: TD50

Query: If you can, please state the reported TD50 value of "C=CCl" .
Response: 78.6 mg/kg/day

###

System: rodent lifetime carcinogenesis bioassay, tumor incidence TD50
Assay: carcinogenic potency in animals, long-term in vivo studies, CPDB compilation (AID 1745844)
Conditions: rat; strain MRC-Wistar; males; by gavage; site: liver; lesion: one or several types; types not named; dosed 104 weeks; study length 104 weeks
Measured metric: TD50

Query: Form field: TD50 recorded for "CC(=O)CN(CC(C)=O)N=O" with rodent lifetime carcinogenesis bioassay, tumor incidence TD50 (enter value)
Response: 1.56 mg/kg/day

###

Tested on: rodent lifetime carcinogenesis bioassay, tumor incidence TD50
Assay: carcinogenic potency in animals, long-term in vivo studies, CPDB compilation (AID 1745844)
Conditions: mouse; strain B6C3F1; males; inhaled; site: all sites; lesion: hemangioma + hemangiosarcoma; dosed 102 weeks; study length 104 weeks
Measured metric: TD50 (mg/kg/day)
Please give a number only; it is taken to be in mg/kg/day.

Query: If you can, please state the reported TD50 value of "ClCCl" .
Response: 13200

###

Test system: rodent lifetime carcinogenesis bioassay, tumor incidence TD50
Experiment: carcinogenic potency in animals, long-term in vivo studies, CPDB compilation (AID 1745844)
Settings: rat; strain Osborne-Mendel; males; in feed; site: liver; lesion: several types; types named in the paper; dosed 104 weeks; study length 104 weeks
Measured metric: TD50

Query: If you can, please state the reported TD50 value of "CCN(Cc1cccc(S(=O)(=O)O)c1)c1ccc(C(=C2C=CC(=[N+](CC)Cc3cccc(S(=O)(=O)[O-])c3)C=C2)c2ccccc2)cc1" .
Response: 5980 mg/kg/day

###

System: rodent lifetime carcinogenesis bioassay, tumor incidence TD50
Test: carcinogenic potency in animals, long-term in vivo studies, CPDB compilation (AID 1745844)
Conditions: mouse; strain Swiss; females; in drinking water; site: liver; lesion: hemangioma; dosed 52 weeks; study length 52 weeks
Measured metric: TD50 (mg/kg/day)
Please give a number only; it is taken to be in mg/kg/day.

Query: If you can, please state the reported TD50 value of "O=CCC=O" .
Response: 24.8

###

Test system: rodent lifetime carcinogenesis bioassay, tumor incidence TD50
Assay: carcinogenic potency in animals, long-term in vivo studies, CPDB compilation (AID 1745844)
Settings: rat; strain Wistar; males; in feed; site: testis; lesion: interstitial-cell tumor; dosed 52 weeks; study length 52 weeks
Calls of active or inactive are those of the source. How the calls were made is not given here.
Measured metric: TD50

Query: If you can, please state the reported TD50 value of "Cc1cc(Cc2cc(C)cc(C(C)(C)C)c2O)c(O)c(C(C)(C)C)c1" .
Response: 44.5 mg/kg/day (inactive)

###

System: rodent lifetime carcinogenesis bioassay, tumor incidence TD50
Assay: carcinogenic potency in animals, long-term in vivo studies, CPDB compilation (AID 1745844)
Conditions: rat; strain Sprague-Dawley Spartan; females; inhaled; site: liver; lesion: hepatocellular carcinoma; dosed 104 weeks; study length 104 weeks
Active and inactive are the calls of the source. No rule for the calls is given here.
Measured metric: TD50

Query: If you can, please state the reported TD50 value of "ClCCl" .
Response: 9520 mg/kg/day (inactive)

###

Test system: rodent lifetime carcinogenesis bioassay, tumor incidence TD50
Test: carcinogenic potency in animals, long-term in vivo studies, CPDB compilation (AID 1745844)
Conditions: rat; strain Fischer 344; females; in drinking water; site: mammary gland; lesion: adenocarcinoma; dosed 60 weeks; study length 60 weeks
Measured metric: TD50

Query: Form field: TD50 recorded for "Cc1cc(-c2ccc(N)c(C)c2)ccc1N" with rodent lifetime carcinogenesis bioassay, tumor incidence TD50 (enter value)
Response: 8.33 mg/kg/day

###

Tested on: rodent lifetime carcinogenesis bioassay, tumor incidence TD50
Test: carcinogenic potency in animals, long-term in vivo studies, CPDB compilation (AID 1745844)
Conditions: mouse; strain B6C3F1; males; inhaled; site: liver; lesion: hemangiosarcoma; dosed 95 weeks; study length 95 weeks
Measured metric: TD50

Query: If you can, please state the reported TD50 value of "FC(F)=C(F)F" .
Response: 108 mg/kg/day

###

Test system: rodent lifetime carcinogenesis bioassay, tumor incidence TD50
Assay: carcinogenic potency in animals, long-term in vivo studies, CPDB compilation (AID 1745844)
Conditions: rat; strain F344/DuCrj; males; in drinking water; site: liver; lesion: neoplastic nodule; dosed 99 weeks; study length 111 weeks
Measured metric: TD50 (mg/kg/day)
Please give a number only; it is taken to be in mg/kg/day.

Query: If you can, please state the reported TD50 value of "CCN(N=O)C(N)=O" .
Response: 16.4

###

Test system: rodent lifetime carcinogenesis bioassay, tumor incidence TD50
Experiment: carcinogenic potency in animals, long-term in vivo studies, CPDB compilation (AID 1745844)
Conditions: mouse; strain Charles River CD1; males; in feed; site: stomach, nonglandular; lesion: papilloma; dosed 112 weeks; study length 112 weeks
Measured metric: TD50

Query: If you can, please state the reported TD50 value of "O=C1c2ccccc2C(=O)N1SC(Cl)(Cl)Cl" .
Response: 13400 mg/kg/day

###

System: rodent lifetime carcinogenesis bioassay, tumor incidence TD50
Experiment: carcinogenic potency in animals, long-term in vivo studies, CPDB compilation (AID 1745844)
Settings: rat; strain Fischer 344; females; inhaled; site: mammary gland; lesion: adenocarcinoma, NOS + adenoma, NOS + fibroadenoma + mixed tumor, malignant; dosed 102 weeks; study length 104 weeks
Measured metric: TD50 (mg/kg/day)
Please give a number only; it is taken to be in mg/kg/day.

Query: If you can, please state the reported TD50 value of "ClCCl" .
Response: 670

###

Tested on: rodent lifetime carcinogenesis bioassay, tumor incidence TD50
Assay: carcinogenic potency in animals, long-term in vivo studies, CPDB compilation (AID 1745844)
Conditions: mouse; strain B6C3F1; males; in feed; site: urinary bladder; lesion: transitional-cell carcinoma; dosed 96 weeks; study length 96 weeks
Measured metric: TD50

Query: If you can, please state the reported TD50 value of "O=c1cc[nH]c(=O)[nH]1" .
Response: 25700 mg/kg/day

###

Record form. Attribute: TD50. Fill in for each entry.
Test system: rodent lifetime carcinogenesis bioassay, tumor incidence TD50
Assay: carcinogenic potency in animals, long-term in vivo studies, CPDB compilation (AID 1745844)
Conditions: mouse; strain B6C3F1; males; oral dosing; site: any site (literature study); lesion: several types; types named in the paper; dosed 81 weeks; study length 81 weeks
Please give a number only; it is taken to be in mg/kg/day.

Query: If you can, please state the reported TD50 value of "CCN(CC)C(=S)S[Se](SC(=S)N(CC)CC)(SC(=S)N(CC)CC)SC(=S)N(CC)CC" .
Response: 0.638

Query: If you can, please state the reported TD50 value of "CCCc1ccc2c(c1)OCO2" .
Response: 107
